Cited source for all entries: PubChem BioAssay (NCI)

tested on: MALME-3M melanoma; experiment: NCI tumour cell line growth inhibition, 48 h
assay-endpoint: GI50

Could you tell me which GI50 is on file for COc1ccc(/C=C(/c2ccccc2)[N+](=O)[O-])cc1 ?
1.42 µM

Same question, CC/C=C/C/C=C/C/C=C/C/C=C/C/C=C/C/C=C/CCC(=O)Nc1ccn([C@@H]2O[C@H](CO)[C@@H](O)C2(F)F)c(=O)n1 this time
9.33 µM

Here is the next compound: CCCCCCCCCCN1CCC(N2CCCCC2)CC1
1.97 µM

Proceed to Cc1cc(C)n(-c2nnc3n2N=C(c2ccc(-c4ccccc4)cc2)CS3)n1
3.44 µM

And then Cn1cc(-c2ccc(-c3cncc(Cl)c3N3CCC4(CCNC4=O)CC3)cc2)cn1 , what is it?
66.6 µM

Now consider O=C(NO)c1ccc(CN(c2cnccn2)c2cnccn2)cc1 .
7.9 µM
